This collection of values is drawn from the nanobody polyreactivity screen of Harvey et al. (2022).

# assay.name: yeast display, Sf9 membrane polyspecificity reagent, FACS + sequencing; frameworks hold sequencing errors
metric.name: polyreactivity (PSR sort gate)

ordered_residues=QVQLVESVGGLVQAGRSLRLSCAASGNTFLRYAMGWYRQAPGKERELVAAISRSGGSTYYADSVKGRFTISRDNAKNTVYLQMNSLKPEDTAVYYCAARRSSQPDKGYYYWGQGTQVTVSS reported_value="high polyreactivity"
ordered_residues=QVQLVESGGGLVQAGGSLRLSCAASGSTFRGYAMGWYRQAPGKERELVATITSGGSTNYADSVKGRFTISRDNAKNTVYLQMNSLKPEDTAVYYCNARWVPRYWKYFPANYGYWGLGTQVTVSS reported_value="high polyreactivity"
ordered_residues=QVQLVESGGGLVQAGGSLRLSCAASGFIFGYYAMGWYRQAPGKEREFVAAITKRGGRTYYADSVKGRFTISRDNAKNTVYLQMNSLKPEDTAVYYCNKAIRQDRWVQEEDYWGQGTQVTVSS reported_value="high polyreactivity"
